Where do these numbers come from? They come from ChEMBL document CHEMBL5058577.

- Tested on: U2OS
- Assay Notes: Multiplex assay against U2OS
- Assay type: toxicity, cell-based
- Particulars: human, 12 h, 10 µM, compound concentration 10 uM, replicate 2
Measure Name: Population Fragmented Nuclei (%)
Express it in %; write the number only.

QUERY: Please give the documented Population Fragmented Nuclei (%) of COCCn1c(C)c(C)s/c1=N\C(=O)C1C(C)(C)C1(C)C
RESULT: 20

###

Collected Total Cell Count values appear next to each entry.
- System: U2OS
- Assay Notes: Multiplex assay against U2OS
- Format: toxicity, cell-based
- Particulars: human, 48 h, 1 µM, compound concentration 1 uM, replicate 1
Non-standard residues stand in square brackets, D forms with d. Residues, ends and D or L forms follow the SMILES beside them.
Answer as a number with no unit attached.

Solved cases (5 shown):
1. C[C@H](NC(=O)CNC(=O)c1cccc(Cl)c1)c1ccccc1 ... 401
2. C=CCN1C[C@H](C(=O)N(CCCN(C)C)C(=O)NCC)C[C@@H]2c3cccc4[nH]cc(c34)C[C@H]21 [CABERGOLINE] ... 405
3. CC(C)C[C@@H]1NC(=O)[C@@H](C(C)C)NC(=O)[C@@H]2CCCN2C(=O)[C@@H](CC(=O)O)NC(=O)[C@@H](Cc2c[nH]c3ccccc23)NC1=O [BQ-123] (cyclo(L[dW][dD]P[dV])) ... 407
4. Cc1cc(NC(=O)NCCN2CCC(O)(Cc3ccccc3)CC2)c2ccccc2n1 [PALOSURAN] ... 411
5. Cc1cc(-c2ccc3c(c2)CC[C@H]3N2CC3(CCN(C(=O)Cc4cn5cc(C)sc5n4)CC3)C2)ncn1 [PF-5190457] ... 402

QUERY: Please give the documented Total Cell Count of COc1cc(OC2CCN(C(C)=O)CC2)ccc1C(=O)N1CCC(N2C(=O)OCc3ccccc32)CC1
RESULT: 388

QUERY: Please give the documented Total Cell Count of S=C(NCCCc1c[nH]cn1)NCCCN(Cc1ccc(Cl)c(Cl)c1)c1ccc(Br)cn1
RESULT: 409

###

- Tested on: U2OS
- Assay Notes: Multiplex assay against U2OS
- Format: toxicity, cell-based
- Particulars: human, 24 h, 10 µM, compound concentration 10 uM, replicate 1
Measure Name: Population Tubulin-Different-Phenotype (%)

Solved cases (8 shown):
1) COC(c1ccccc1)(c1ccccc1)[C@H](Oc1nc(C)cc(C)n1)C(=O)O ... 3%
2) Cc1c(Cc2ccc3ccccc3n2)c2cc(F)ccc2n1CC(=O)O ... 3%
3) CCCCC[C@H](O)/C=C/[C@H]1[C@H](O)CC(=O)[C@@H]1CCCCCCC(=O)O ... 3%
4) CCCCCCNC(=O)Nc1ccc(S(=O)(=O)Nc2ccc(CCNC[C@H](O)COc3ccc(O)cc3)cc2)cc1 ... 3%
5) O=C(O)CCC/C=C\CC1C(O)CC(O)C1/C=C/C(O)COc1cccc(Cl)c1 (configuration not stated) ... 3%
6) C[C@@H]1CC(=O)Nc2cccc(-c3ccc4c(c3)c(-c3cnn(C)c3)nn4C)c2N1 ... 3%
7) Cc1nn(C)c2nc(NNC(=O)Nc3cc(Cl)nc(Cl)c3)cc(C(C)C)c12 ... 77%
8) N[C@](CC1c2ccccc2Oc2ccccc21)(C(=O)O)[C@H]1C[C@@H]1C(=O)O ... 1%

QUERY: Please give the documented Population Tubulin-Different-Phenotype (%) of Cc1cc(NC(=O)NCCN2CCC(O)(Cc3ccccc3)CC2)c2ccccc2n1
RESULT: 2%

QUERY: Please give the documented Population Tubulin-Different-Phenotype (%) of CCc1nn2c(C)cc(C)nc2c1Cc1ccc(-c2nnc(C3CCNCC3)o2)cc1
RESULT: 7%

QUERY: Please give the documented Population Tubulin-Different-Phenotype (%) of CN1CCC(C(=O)c2cccc(NC(=O)c3c(F)cc(F)cc3F)n2)CC1
RESULT: 5%

QUERY: Please give the documented Population Tubulin-Different-Phenotype (%) of COc1cc(Nc2ncc3c(n2)-c2ccc(Cl)cc2C(c2c(F)cccc2OC)=NC3)ccc1C(=O)O
RESULT: 4%
